tested on: KM20L2 colon; test: NCI tumour cell line growth inhibition, 48 h
Reported TGI is given for each of the following compounds.

Query :: // lookup TGI for C=C1CC2(OC1=O)c1ccccc1CCc1ccccc12
Result :: 14.5 µM

Query :: Now try CC(C)NC(C)Cc1ccccc1 (stereo unspecified) .
Result :: > 100 µM

Query :: Another compound to check: CCCCCN(CCCCC)C(=O)[C@@H](CCC(=O)OCc1ccccc1)NC(=O)c1cc2ccccc2[nH]1
Result :: > 100 µM

Query :: Same question for Cc1c2n(c3ccccc13)CC1C2N(C)OC1(C)C (stereo unspecified) please.
Result :: > 100 µM

Query :: Further, for CCC(C)(C)NC1=C(NC(C)=O)C(=O)c2ccccc2C1=O ?
Result :: > 75 µM

Query :: Here is the next compound: C(/COc1cccnc1)=N\NC1=NCCN1
Result :: > 100 µM

Query :: Now this one: C[n+]1c2ccccc2c(NC(CCC(N)=O)C(=O)O)c2ccccc21 (stereo unspecified)
Result :: > 100 µM

Query :: Try Cc1cccc(NC(=O)CC2C(=O)Nc3ccccc3S2(=O)=O)c1C (stereo unspecified) next.
Result :: > 100 µM

Query :: What would you report for CC(C)OCN1COCN=C1NC#N ?
Result :: > 100 µM

Query :: Another compound to look at: CC1CC2C3CC(F)C4=CC(=O)C=CC4(C)C3(F)C(O)CC2(C)C1(O)C(=O)CO (stereo unspecified)
Result :: > 100 µM

Query :: Try the compound CCCCCCCCCCCCCCCCCC(=O)NCCCNCCCNC(=O)CCCCCCCCCCCCCCCCC
Result :: > 100 µM

###

Attribute: log10(TGI)
test system: MALME-3M melanoma; assay: NCI tumour cell line growth inhibition, 48 h
Quick note: numbers are log10 of TGI, with µM as the unit.

Examples with answers:
COc1cc2cc(C(=O)O)[nH]c2cc1OCc1ccccc1	1.09
CS(=O)(=O)c1ccc(C(F)(F)F)cc1NC(=O)Nc1cnc(Oc2ccc(-c3cc(Cl)cnc3N)cc2)nc1	0.72
Nc1nc(Nc2ccc(Cl)cc2)sc1C(=O)c1cc2ccccc2oc1=O	1.89
C=C1C(=O)C=C2C=C3C(=O)C(C)(C)C[C@]3(O)C12C (stereo partly specified)	0.56

Moving on to another compound below.
Query :: Reported log10(TGI) for COC(=O)[C@]1(c2cc3ccccc3n2S(=O)(=O)c2ccccc2)CC2CCC1NC2 (stereo partly specified) : what is it?
Result :: 1.48

###

tested on: SK-MEL-28 melanoma; assay: NCI tumour cell line growth inhibition, 48 h
reported-metric: TGI

C=C1C(=O)C=C2C=C3C(=O)C(C)(C)C[C@]3(O)C12C (stereo partly specified)	6.76 µM
CC(=O)Oc1ccc(-c2cc3ccccc3oc2=O)cc1OC(C)=O	> 100 µM
CCC(C)(C)NC1=C(NC(C)=O)C(=O)c2ccccc2C1=O	> 75 µM

Query :: What reported TGI corresponds to COC(=O)/C(=C/N1CCN(C(=O)c2ccco2)C1=S)C(C)=O on SK-MEL-28 melanoma?
Result :: 52.6 µM

Query :: Then Nc1ccc(-c2ccc(-c3nc4ccccc4[nH]3)cc2)cc1 ?
Result :: > 100 µM

Query :: # repeat for CN1c2ccccc2C2c3c(O)ccc(O)c3C=C([N+](=O)[O-])C21 (stereo unspecified)
Result :: 11.3 µM

###

test system: K-562 leukemia; assay: NCI tumour cell line growth inhibition, 48 h; in the data active = GI50 below about 0.43 µM; inactive = the rest
Your reply should match one of these outcome classes. active, inactive

COC(=O)/C(=C/N1CCN(C(=O)c2ccco2)C1=S)C(C)=O	inactive
O=C1Nc2ccccc2SC1C1SC(=S)N(Cc2ccccc2)C1=O (stereo unspecified)	inactive
Cc1ccc(NC2=C(Cl)C(=O)c3nc(C)ccc3C2=O)cc1	inactive
O=c1cccc(C#CCCCCOC2CCCO2)o1 (stereo unspecified)	inactive
NC1=C(c2nc(-c3cc4ccccc4oc3=O)cs2)C(c2ccco2)c2c(c3ccccc3oc2=O)O1 (stereo unspecified)	inactive

Let us examine a further case.
Query :: Record request — test call for N#Cc1cccc(Nc2nccc(-c3cnn4ncccc34)n2)c1
Result :: active

###

test system: LXFL 529 NSCLC; experiment: NCI tumour cell line growth inhibition, 48 h
Reported TGI values follow for various molecules

Please review the entries below; each comes with its answer.
C=C1CC2(OC1=O)c1ccccc1CCc1ccccc12	3.07 µM
O=C(O)C1Cc2nc[nH]c2CN1 (stereo not drawn)	> 100 µM
CCC(C)(C)NC1=C(NC(C)=O)C(=O)c2ccccc2C1=O	> 75 µM
CCC(=S)N(C)O	> 100 µM
CCCCCN(CCCCC)C(=O)[C@@H](CCC(=O)OCc1ccccc1)NC(=O)c1cc2ccccc2[nH]1	> 100 µM
c1ccc2cc3n[se]nc3cc2c1	> 100 µM

Query :: Give its TGI value. Item: Fc1cccc(F)c1C1SCc2nc3ccccc3n21 (stereo not drawn)
Result :: > 100 µM

Query :: Now consider C[n+]1c2ccccc2c(NC(CCC(N)=O)C(=O)O)c2ccccc21 (stereo not drawn) and answer again.
Result :: > 100 µM

###

system: T-47D breast; experiment: NCI tumour cell line growth inhibition, 48 h; in the data active means GI50 below about 0.43 µM; inactive means the rest
Log the outcome using a class from 1 = active, 0 = inactive

Please review the following examples before continuing.
NC(=O)c1c(OCc2c(F)cc(Br)cc2F)nsc1NC(=O)NCCCCN1CCCC1	0
COc1ccc(OC)c(-c2nc3sccn3c2/C=C2/C(=O)Nc3ccccc32)c1	0
O=C1Nc2ccccc2SC1C1SC(=S)N(Cc2ccccc2)C1=O (stereo not given)	0
O=C(Nc1ccc(-n2cc(-c3ccncc3)c(-c3ccc(Cl)c(O)c3)n2)cc1)c1cc(Cl)cc(Cl)c1	0
COc1ccc2cc(C(=O)/C=C/c3ccc(OC)c(OC)c3)ccc2c1	0

Query :: Each molecule tested received a call. Report the one for CCOC(=O)c1cc(C(=O)c2cc(OC)cc(OC)c2)n2ncccc12 .
Result :: 0

Query :: What do we get for Cc1ccc(NC2=C(Cl)C(=O)c3nc(C)ccc3C2=O)cc1 ?
Result :: 0

Query :: Same lookup for Clc1ccc2c(NCCCN3CCN(c4nc(-n5ccnc5)nc5ccccc45)CC3)ccnc2c1 , please.
Result :: 0

Query :: Same question for O=C1c2cccc3c(N4CCN(c5ccc6c7c(cccc57)C(=O)N(CCN5CCNCC5)C6=O)CC4)ccc(c23)C(=O)N1CCN1CCNCC1 please.
Result :: 0

Query :: Entry COc1cc2cc(C(=O)O)[nH]c2cc1OCc1ccccc1 please
Result :: 0

Query :: How about this molecule: O=S(=O)(Nc1ccc(Cl)c(C(F)(F)F)c1)c1ccc(-c2cnc(C3CC3)o2)cc1
Result :: 1

Query :: Another molecule to check: O=C(N/N=C/c1cc2ccccc2c2ccccc12)c1cc(O)c(O)c(O)c1
Result :: 0

Query :: Try N#Cc1cccc(Nc2nccc(-c3cnn4ncccc34)n2)c1 next.
Result :: 1

Query :: Quick one: N#CC1=C(N)Oc2c(sc3c(F)cccc23)C1c1ccc([N+](=O)[O-])cc1 (stereo not given)
Result :: 1

Query :: And for O=C(NCCNCCO)c1ccc2oc3cc4ccccc4c(=O)n3c2c1 ?
Result :: 0

###

system: UO-31 renal; experiment: NCI tumour cell line growth inhibition, 48 h; in the data active means GI50 below about 0.43 µM; inactive means the rest
Where a SMILES comes first, the peptide text is derived from it. [ ]: non-standard residue; d: D form. 2Nal = N[CH](Cc1ccc2ccccc2c1)C(=O)O
One label from this list, please: active, inactive

CN(C)CCCC1(c2ccc(F)cc2)OCc2cc(-c3ccc4cc[nH]c4c3)ccc21 (centres undefined)	inactive
CC(NC(=O)C(N)Cc1ccccc1)C(=O)NC(Cc1ccc(O)cc1)C(=O)NC(Cc1c[nH]c2ccccc12)C(=O)NC(CCCCN)C(=O)NC(C(=O)NC(C)C(=O)NC(Cc1ccc2ccccc2c1)C(N)=O)C(C)C (centres undefined) (H-FAYWKVA[2Nal]-NH2; configuration not given here)	inactive
Cc1cc(NC(=O)CCc2ccc(N3C(N)=NC(N)=NC3(C)C)cc2)ccc1S(=O)(=O)F	inactive

Query :: What did the test return for O=C(c1cccs1)c1c(C(F)(F)F)n([O-])c2cc(F)c(F)cc2[n+]1=O ?
Result :: inactive

Query :: Try O=C1Nc2ccccc2SC1C1SC(=S)N(Cc2ccccc2)C1=O (centres undefined) next.
Result :: inactive

###

test system: CAKI-1 renal; test: NCI tumour cell line growth inhibition, 48 h
Below, each entry is listed with its recorded TGI.

CCCCCCCCCCCCCCCCCCNc1ccn(C2OC(CO)C(OP(=O)(O)OCC3CCC(n4ccc(N)nc4=O)O3)C2O)c(=O)n1 (centres undefined)	> 100 µM
Cc1[nH]n(-c2ccccc2)c(=S)c1C(=O)c1ccccc1	> 100 µM
Cc1ccnc2c1NC(=O)c1cccnc1N2C1CC1	> 100 µM

Query :: API: value(readout= TGI, system= CAKI-1 renal, query= CSc1s[s+]c(SC)c1[O-] )
Result :: 53.6 µM
